# EXPERIMENTAL SYSTEM: M2
# PROTOCOL TEXT: ELISA on coated antigen, column M2
# Method: An antigen PD-L1 wild type (WT) or several mutants were coated at a density of 100 ng/well on a 96-well immunoplate at 4° C. for 16 hours and the wells were blocked with 4% skim milk dissolved in PBS. […] After washing with 0.2 ml of PBS/T, color development was performed and absorbance was measured at 490 nm.
A collection of binders and their measured absorbance at 490 nm
Reply: number alone, nothing else.

[[record]]
binder = "PDL1-16E12 (antibody, V domains shown, Only FR/CDR pieces are tied to the clone; also called parent antibody) VH: QMQLVQSGAEVKKPGSSVKVSCKASGGTFSSYAISWVRQAPGQGLEWMGRIIPILGIANYAQKFQGRVTITADKSTSTAYMELSSLRSEDTAVYYCAKPRDGYNLVAFDIWGQGTMVTVSS VL: QLVLTQPPSVSGAPGQTVTISCTGSSSNIGAGYDVHWYQQLPGTAPKLLIYGNNNRPSGVPDRFSGSKSGALASLAITGLQAEDGADYHCQSYDNSLSAHAVFGTGTKVTVL"
experimental_value = 2.3


Query binder follows.
Give absorbance at 490 nm for PDL1-23E5 (antibody, V domains shown, Only FR/CDR pieces are tied to the clone) VH: QVQLVQSGAEVVKPGSSVKVSCKASGDTFSRYAISWVRQAPGQAPEWMGRIIPVLGAANYARKFQDRVTITADISTTTAFMELTSLRSEDTAVYYCARSLSGYSLGAFDVWGPGTLVTVSS VL: QLVLTQPPSVSGAPGQSVSISCIGSNSNIGTPYDVHWYQQIPGEAPKLLIYGSTNRPSGVPDRFSGSRSGSSASLDITGLQADDEAYYYCQSYDRSLGVSDVVFGGGTKLTVL 2.4
